Reference source for all entries: patent US9550763B2

List of log10 IC50 values.
Target: human P2X3 receptor (Homo sapiens (Human), UniProt P56373)
Sequence (P56373 whole entry): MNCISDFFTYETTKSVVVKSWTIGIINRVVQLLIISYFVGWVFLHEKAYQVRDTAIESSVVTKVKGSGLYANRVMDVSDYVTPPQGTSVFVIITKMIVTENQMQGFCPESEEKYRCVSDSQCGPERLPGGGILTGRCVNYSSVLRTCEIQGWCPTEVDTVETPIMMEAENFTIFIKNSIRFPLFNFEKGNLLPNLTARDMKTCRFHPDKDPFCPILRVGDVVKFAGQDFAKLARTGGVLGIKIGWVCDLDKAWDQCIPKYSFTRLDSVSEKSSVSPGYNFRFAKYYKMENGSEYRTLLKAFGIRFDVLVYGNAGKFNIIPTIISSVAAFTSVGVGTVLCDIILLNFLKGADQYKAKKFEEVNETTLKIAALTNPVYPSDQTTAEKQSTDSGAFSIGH
Assay: Evaluation of human P2X3 receptor inhibitory activity (Test Example 1-2, FLIPR 384, 384-well, 150 nM ATP)
Format: cell-based
Details: human P2X3 receptor in C6BU-1 cells; Test Example 1-2 (compounds I-301 to I-483); read-out: P2X3 IC50
Recall that a logarithmic scale is used here: each number is log10 of IC50 in nM.

// solved cases for log10 IC50 follow
COMPOUND	log10 IC50
Cc1nc(Nc2cc(=O)n(C(C)C)c(=O)n2Cc2ccc(Cl)cc2)ccc1Oc1cccc(C#N)c1	0.90
C#CCNC(=O)c1c[nH]/c(=N\c2ccc(Oc3cccc(F)n3)cc2)n(Cc2ccc(Cl)cc2)c1=O	0.90
O=C1CCCN1c1c[nH]/c(=N\c2ccc(Oc3cccc(F)n3)cc2)n(Cc2ccc(Cl)cc2)c1=O	2.17
CCC(=O)Nc1c[nH]/c(=N\c2ccc(Oc3ccc(C#N)nn3)cc2)n(Cc2ccc(Cl)cc2)c1=O	1.28
CCn1c(=O)cc(Nc2ccc3nc(C(F)F)sc3c2)n(Cc2ccc(Cl)cc2)c1=O	2.52
CC(c1ccc(F)cc1)n1cc(C(=O)NC2CCOCC2)c(=O)nc1Nc1ccc(Oc2cccc(F)n2)cc1 (stereo not shown)	2.57

INPUT: Specify log10 IC50 for COC(=O)[C@H](C)[C@H](C)n1c(=O)cc(Nc2ccc(Oc3ccc(F)nc3)c(C)n2)n(Cc2ccc(Cl)cc2)c1=O and stop.
OUTPUT: 0.95

----------
Molecular target: human P2X3 receptor (Homo sapiens (Human))
Assay: Evaluation of human P2X3 receptor inhibitory activity (Test Example 1-2, FLIPR 384, 384-well, 150 nM ATP)
Assay type: cell-based
Settings: human P2X3 receptor in C6BU-1 cells; Test Example 1-2 (compounds I-301 to I-483); read-out: P2X3 IC50
List of pIC50 values.
On this scale, pIC50 is minus log10 of a concentration expressed in M (mol/L).

MOLECULE	pIC50
CCC(=O)Nc1c[nH]/c(=N\c2ccc(Oc3cc(C)c(Cl)nn3)cc2)n(Cc2ccc(Cl)cc2)c1=O [Compound I-432]	7.92

INPUT: Specify pIC50 for O=C(NC1CCCOC1)c1cn(Cc2ccc(Cl)cc2)c(Nc2ccc(Oc3cccc(F)n3)cc2)nc1=O (stereo not shown) [Compound I-383] and stop.
OUTPUT: 7.89

INPUT: Specify pIC50 for CCCn1c(=O)c(F)c(Nc2ccc(Oc3cccc(C(=O)O)c3)cc2)n(Cc2ccc(Cl)cc2)c1=O [Compound I-303] and stop.
OUTPUT: 6.96

INPUT: Specify pIC50 for O=C(NCC1CCOC1)c1cn(Cc2ccc(Cl)cc2)c(Nc2ccc(Oc3cccc(F)n3)cc2)nc1=O (stereo not shown) [Compound I-396] and stop.
OUTPUT: 7.60

----------
Biological target: human P2X3 receptor (Homo sapiens (Human), UniProt P56373)
Test: Evaluation of human P2X3 receptor inhibitory activity (Test Example 1-1, FDSS 3000, 96-well, 50 nM ATP)
Assay type: cell-based
Details: human P2X3 receptor in C6BU-1 cells; Test Example 1-1 (compounds I-001 to I-300)
PARAMETER_MEASURED: IC50 (nM)
# number only, unit nM dropped from output

MOLECULE	UNIT_ABBREV	IC50
CCCn1c(=O)cc(Nc2ccc(Oc3cccc(C(=O)OCC)c3)cn2)n(Cc2ccc(Cl)cc2)c1=O [Compound I-166]	nM	169
O=c1c(NC(=O)[C@H]2C[C@H](O)C2)c[nH]/c(=N\c2ccc(Oc3ccon3)cc2)n1Cc1ccc(Cl)cc1 [Compound I-183]	nM	6
O=C(Nc1c[nH]/c(=N\c2ccc(Oc3ccon3)cc2)n(Cc2ccc(Cl)cc2)c1=O)c1cccnc1 [Compound I-265]	nM	48
O=C(Nc1c[nH]/c(=N\c2ccc(Oc3ccon3)cc2)n(Cc2ccc(Cl)cc2)c1=O)c1cc[nH]n1 [Compound I-231]	nM	388
O=C(Nc1c[nH]/c(=N\c2ccc(Oc3ccon3)cc2)n(Cc2ccc(Cl)cc2)c1=O)C1CC(F)(F)C1 [Compound I-211]	nM	15
NC(=O)c1c[nH]/c(=N\c2ccc(Oc3cccc(F)n3)cc2)n(Cc2ccc(Cl)cc2)c1=O [Compound I-034]	nM	14

# context switch: different molecule, same IC50
INPUT: Specify IC50 for C[C@@H](Cn1c(=O)cc(Nc2ccc(Oc3cccc(C#N)n3)c(F)c2)n(Cc2ccc(Cl)cc2)c1=O)C(=O)O [Compound I-127] and stop.
OUTPUT: 3

----------
Biological target: human P2X3 receptor (Homo sapiens (Human))
Assay: Evaluation of human P2X3 receptor inhibitory activity (Test Example 1-2, FLIPR 384, 384-well, 150 nM ATP)
Assay type: cell-based
Details: human P2X3 receptor in C6BU-1 cells; Test Example 1-2 (compounds I-301 to I-483); read-out: P2X3 IC50
pIC50: −log10 of the molar value.
Respond with true (1) for pIC50 values of 7 and above, false (0) for values below.

A selection of reference data follows.
COMPOUND	TEST_SYSTEM	CAT
O=c1c(Nc2ccon2)c[nH]/c(=N\c2ccc(Oc3ccc(F)cn3)cc2)n1Cc1ccc(Cl)cc1	human P2X3 receptor (Homo sapiens (Human))	true (1)
CSc1cccc(Oc2ccc(/N=c3\[nH]cc(N4CCCC4=O)c(=O)n3Cc3ccc(Cl)cc3)cc2)n1	human P2X3 receptor (Homo sapiens (Human))	false (0)
O=c1c(-c2nnco2)c[nH]/c(=N\c2ccc(Oc3ccon3)cc2)n1Cc1ccc(Cl)cc1	human P2X3 receptor (Homo sapiens (Human))	true (1)

In the following, a different compound is considered.
INPUT: Evaluate O=C(NC1CCNC1=O)c1cn(Cc2ccc(Cl)cc2)c(Nc2ccc(Oc3cccc(F)n3)cc2)nc1=O (stereo not shown) : pIC50 at minimum 7?
OUTPUT: true (1)

----------
List of pIC50 values.
Biological target: human P2X3 receptor (Homo sapiens (Human))
Experiment: Evaluation of human P2X3 receptor inhibitory activity (Test Example 1-1, FDSS 3000, 96-well, 50 nM ATP)
Format: cell-based
Settings: human P2X3 receptor in C6BU-1 cells; Test Example 1-1 (compounds I-001 to I-300)
On this scale, pIC50 is minus log10 of a concentration expressed in M (mol/L).

// solved cases for pIC50 follow
ITEM_SMILES	PARAMETER_MEASURED	OBSERVED
CCc1oc2ccc(Nc3ncc(NC(=O)C4CCOCC4)c(=O)n3C[C@H]3CC[C@H](C)CC3)cc2c1C	pIC50	8.05
O=C(NC1CCOCC1)c1cn(Cc2ccc(Cl)cc2)c(Nc2ccc(Oc3ncccc3F)cc2)nc1=O	pIC50	7.77
CCn1c(=O)cc(Nc2ccc(Oc3cccc(C(=O)OC)c3)cc2)n(Cc2ccc(Cl)cc2)c1=O	pIC50	7.42
CN(C(=O)C1CCOCC1)c1c[nH]/c(=N\c2ccc(Oc3ccon3)cc2)n(Cc2ccc(Cl)cc2)c1=O	pIC50	7.47
CCCn1c(=O)cc(Nc2ccc(Oc3cnc(C#N)nc3)cn2)n(Cc2ccc(Cl)cc2)c1=O	pIC50	7.43
O=C(NCCO)c1c[nH]/c(=N\c2ccc(Oc3ncccc3F)cc2)n(Cc2ccc(Cl)cc2)c1=O	pIC50	7.66

# context switch: different compound, same pIC50
INPUT: Specify pIC50 for CCc1oc2ccc(Nc3nc(=O)c(C(=O)NC(CC)CC)cn3Cc3ccc(Cl)cc3)cc2c1C and stop.
OUTPUT: 7.27

----------
Molecular target: UniProt P56373
Test: Evaluation of human P2X3 receptor inhibitory activity (Test Example 1-2, FLIPR 384, 384-well, 150 nM ATP)
Assay type: cell-based
Details: human P2X3 receptor in C6BU-1 cells; Test Example 1-2 (compounds I-301 to I-483); read-out: P2X3 IC50
List of pIC50 values.
On this scale, pIC50 is minus log10 of a concentration expressed in M (mol/L).

// solved cases for pIC50 follow
COMPOUND	pIC50
COCCCNC(=O)c1cn(Cc2ccc(Cl)cc2)c(Nc2ccc(Oc3cccc(F)n3)cc2)nc1=O [Compound I-373]	6.87
C#CCNC(=O)c1c[nH]/c(=N\c2ccc(Oc3ccon3)cc2)n(Cc2ccc(Cl)cc2)c1=O [Compound I-344]	8.40
COc1cn(Cc2ccc(Cl)cc2)c(Nc2ccc(Oc3cccc(F)n3)cc2)nc1=O [Compound I-351]	7.01
Cc1c[nH]c2ccc(Nc3ncc(NC(=O)C4CCOCC4)c(=O)n3Cc3ccc(Cl)cc3)cc12 [Compound I-414]	6.41
NC(=O)[C@H](CO)NC(=O)c1cn(Cc2ccc(Cl)cc2)c(Nc2ccc(Oc3cccc(F)n3)cc2)nc1=O [Compound I-375]	8.40
CCOC(=O)c1cnc(Oc2ccc(/N=c3\[nH]cc(C(C)C)c(=O)n3Cc3ccc(Cl)cc3)cc2)s1 [Compound I-410]	6.20
O=C(NC[C@@H]1CCCO1)c1cn(Cc2ccc(Cl)cc2)c(Nc2ccc(Oc3cccc(F)n3)cc2)nc1=O [Compound I-386]	7.82
O=C(NCc1ccccc1)c1c[nH]/c(=N\c2ccc(Oc3ccon3)cc2)n(Cc2ccc(Cl)cc2)c1=O [Compound I-451]	6.98
O=C(O)c1cccc(Oc2ccc(/N=c3\[nH]cc(Br)c(=O)n3Cc3ccc(Cl)cc3)cc2)n1 [Compound I-440]	7.82
O=C(O)c1cccc(Oc2ccc(/N=c3\[nH]cc(C4CCOCC4)c(=O)n3Cc3ccc(Cl)cc3)cc2)n1 [Compound I-478]	8.30

INPUT: Specify pIC50 for CC(=O)OCc1nnc(-c2c[nH]/c(=N\c3ccc(Oc4ccon4)cc3)n(Cc3ccc(Cl)cc3)c2=O)o1 [Compound I-348] and stop.
OUTPUT: 7.12

INPUT: Specify pIC50 for CC(c1ccc(Cl)cc1)n1cc(C(=O)NC2CCOCC2)c(=O)nc1Nc1ccc(Oc2cccc(F)n2)cc1 (stereo not shown) [Compound I-358] and stop.
OUTPUT: 7.64

INPUT: Specify pIC50 for O=c1c(-c2nnc(CO)o2)c[nH]/c(=N\c2ccc(Oc3ccon3)cc2)n1Cc1ccc(Cl)cc1 [Compound I-399] and stop.
OUTPUT: 7.44
